Tested on: Escherichia coli TOP10
Assay: shrunken log2 fold change of peptide-encoding DNA abundance (4.5 h post-induction vs induction); higher = less antimicrobial activity (less host growth inhibition)
Conditions: time post-induction: 4.5 h; library: site-saturation at positions 5, 18, 19, 20
Readout Kind: shrunken log2 fold change
Please reply with the number alone, leaving off any unit.

Worked cases, shrunken log2 fold change given:
*Q* Please give the measured shrunken log2 fold change for this sequence: `RRIRTRPPRLPRPRPRPFLWPRP`
*A* 0.189

*Q* Entry `RRIRQRPPRLPRPRPRPTYGPRP` : reported shrunken log2 fold change = ?
*A* -0.293

*Q* Name the reported shrunken log2 fold change value associated with the sequence `RRIRWRPPRLPRPRPRPSYIPRP`
*A* -0.715

*Q* Data request, read-out shrunken log2 fold change, for `RRIRSRPPRLPRPRPRPHCEPRP`
*A* -0.0301

*Q* Field request: shrunken log2 fold change | item: `RRIRIRPPRLPRPRPRPCCKPRP`
*A* -0.398

*Q* Which shrunken log2 fold change value belongs to `RRIRIRPPRLPRPRPRPIFGPRP` ?
*A* -0.164

*Q* Dear colleague, I am looking for the recorded shrunken log2 fold change of the following sequence: `RRIRNRPPRLPRPRPRPAQDPRP`
*A* 0.288

*Q* Fill blank: measured shrunken log2 fold change of the sequence `RRIRRRPPRLPRPRPRPVKTPRP` is ____.
*A* 0.05

---
*Q* Any idea what its shrunken log2 fold change is? The sequence is `RRIRDRPPRLPRPRPRPYGFPRP`
*A* -0.0405

*Q* Name the reported shrunken log2 fold change value associated with the sequence `RRIRDRPPRLPRPRPRPRMYPRP`
*A* -0.154

*Q* State the recorded shrunken log2 fold change for this entry: `RRIRRRPPRLPRPRPRPPLTPRP`
*A* 0.841

*Q* Give its shrunken log2 fold change value. Item: `RRIRERPPRLPRPRPRPYNCPRP`
*A* 0.275

*Q* Which measured shrunken log2 fold change value corresponds to `RRIRRRPPRLPRPRPRPQAGPRP` ?
*A* -9.87e-05

*Q* Look up shrunken log2 fold change: `RRIRTRPPRLPRPRPRPQWQPRP`
*A* 0.0822

*Q* If you can, please state the reported shrunken log2 fold change value of `RRIRHRPPRLPRPRPRPKLVPRP` .
*A* -0.017

###

System: Escherichia coli TOP10;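 further: peptides expressed intracellularly from a pBAD plasmid library in pooled LB shake-flask culture, induced with 0.3% L-arabinose, DNA abundance read by NGS, three biological replicates, DESeq2 with apeglm shrinkage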
Assay: shrunken log2 fold change of peptide-encoding DNA abundance (4.5 h post-induction vs induction); higher = less antimicrobial activity (less host growth inhibition)
Conditions: time post-induction: 4.5 h; library: site-saturation at positions 5, 18, 19, 20
Readout Kind: shrunken log2 fold change

The cases that follow already have their shrunken log2 fold change on record.
*Q* Fill blank: measured shrunken log2 fold change of the sequence `RRIRYRPPRLPRPRPRPQRRPRP` is ____.
*A* -0.261

*Q* Could you share which shrunken log2 fold change value was measured for `RRIRSRPPRLPRPRPRPHCSPRP` ?
*A* -0.686

***
*Q* Requested read-out: shrunken log2 fold change. Entry: `RRIRARPPRLPRPRPRPLPAPRP`
*A* 1.02

*Q* What does the record list as shrunken log2 fold change for `RRIRERPPRLPRPRPRPRNKPRP` ?
*A* -0.121

*Q* State the recorded shrunken log2 fold change for this entry: `RRIRCRPPRLPRPRPRPWLFPRP`
*A* -0.179
